target: human TTK (Homo sapiens); construct: Active TTK was purchased from Invitrogen as an amino terminal GST fusion of full length human TTK; purchased Invitrogen; assay: TTK inhibition assay (indirect ELISA); assay type: biochemical; conditions: 100 μM ATP; read-out: TTK IC50 Range
Sequence (P33981 whole entry, the tested form may be a part): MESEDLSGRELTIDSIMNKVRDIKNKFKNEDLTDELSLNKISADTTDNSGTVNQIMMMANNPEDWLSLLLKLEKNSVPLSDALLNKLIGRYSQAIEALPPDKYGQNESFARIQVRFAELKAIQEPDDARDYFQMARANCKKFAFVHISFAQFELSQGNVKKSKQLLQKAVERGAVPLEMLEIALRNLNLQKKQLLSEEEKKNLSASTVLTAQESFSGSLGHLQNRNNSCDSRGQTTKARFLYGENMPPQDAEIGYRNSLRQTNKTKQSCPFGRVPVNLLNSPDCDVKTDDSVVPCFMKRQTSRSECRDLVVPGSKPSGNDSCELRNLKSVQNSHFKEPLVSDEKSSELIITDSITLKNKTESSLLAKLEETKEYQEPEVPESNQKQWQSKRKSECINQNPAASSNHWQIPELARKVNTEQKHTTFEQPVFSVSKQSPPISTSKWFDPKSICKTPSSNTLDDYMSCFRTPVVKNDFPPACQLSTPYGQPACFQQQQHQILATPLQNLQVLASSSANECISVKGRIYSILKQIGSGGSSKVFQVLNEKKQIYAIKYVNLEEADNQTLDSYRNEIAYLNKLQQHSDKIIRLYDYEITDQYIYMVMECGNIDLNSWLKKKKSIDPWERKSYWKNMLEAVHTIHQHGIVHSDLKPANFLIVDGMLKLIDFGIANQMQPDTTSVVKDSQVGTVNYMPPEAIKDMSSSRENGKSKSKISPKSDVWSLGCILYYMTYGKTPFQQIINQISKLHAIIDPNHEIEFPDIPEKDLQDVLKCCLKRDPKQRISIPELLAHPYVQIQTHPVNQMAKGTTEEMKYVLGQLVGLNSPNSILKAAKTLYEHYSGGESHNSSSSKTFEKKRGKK
Overview of reported IC50 across a group of molecules:

Would you please look over these solved cases?
molecule | value
Cc1cc(-c2cnn3c(NCCN4CCN(C)CC4)cc(Oc4cccc(F)c4)nc23)ccc1C(=O)NC1CC1 [Example C178] | < 100 nM
Cc1cc(-c2cnn3c(NCCN4CCOCC4)cc(OC4COC4)nc23)ccc1C(=O)NC1CC1 [Example C101] | 100 to 500 nM
Cc1cc(-c2cnn3c(NCC4CCOCC4)cc(N[C@H]4CC[C@H](O)CC4)nc23)ccc1C(=O)NC1CC1 [Example C48] | < 100 nM
Cc1cc(-c2cnn3c(NCC4COC4)cc(Oc4cccnc4)nc23)ccc1C(=O)NC1CC1 [Example C100] | < 100 nM

GET /value?item= Cc1cc(-c2cnn3c(NC[C@@H]4CCCO4)cc(NC4CCCC4)nc23)ccc1C(=O)NC1CC1 [Example C64] &field=IC50 returns < 100 nM

Input Cc1cc(-c2cnn3c(NCC4CCOCC4)cc(N[C@H]4COC[C@H]4O)nc23)ccc1C(=O)NC1CC1 [Example C107] . Output IC50: < 100 nM

Lab note: Cc1cc(-c2cnn3c(NCCN4CCOCC4)cc(Oc4cccc(Cl)c4)nc23)ccc1C(=O)NC1CC1 [Example C97] gave IC50 of < 100 nM

Summary for this molecule, CCO[C@H]1COC[C@@H]1Nc1cc(NCC2CCOCC2)n2ncc(-c3ccc(C(=O)NC4CC4)c(C)c3)c2n1 [Example C90] : IC50 is < 100 nM

Entry Cc1cc(-c2cnn3c(NC[C@H]4CCCO4)cc(NC4CCCC4)nc23)ccc1C(=O)NC1CC1 [Example C62] , IC50 reported as < 100 nM

Record Cc1cc(-c2cnn3c(NCc4cccnc4)cc(NC4CCOCC4)nc23)ccc1C(=O)NC1CC1 [Example C49] , field IC50: < 100 nM

The reported value for Cc1cc(-c2cnn3c(NCC4CCOCC4)cc(NC4CCC4)nc23)ccc1C(=O)NC1CC1 [Example C109] in terms of IC50 is < 100 nM

----------
system: breast cancer cells (MDA-MB-468); experiment: Cancer cell line growth inhibition, Sulforhodamine B assay, MDA-MB-468; type: cell-based; details: Homo sapiens, MDA-MB-468, MDA-MB-468 breast cancer cell line; read-out: Cancer Cell Line GI50 Range MDA-MB-468
# maps each entry to its GI50

For record `Cc1cc(-c2cnn3c(NCC4CCOCC4)cc(NCCN4CCOCC4)nc23)ccc1C(=O)NC1CC1` the listed GI50 is > 500 nM

Sample `Cc1cc(-c2cnn3c(NC[C@H]4C[C@@H](O)C4)cc(Oc4cccnc4)nc23)ccc1C(=O)NC1CC1` ; GI50 observed: ≤ 100 nM

Noted for `Cc1cc(-c2cnn3c(NCC4CCOCC4)cc(NCC4CC4)nc23)ccc1C(=O)NC1CC1` : its GI50 reads 100 to 500 nM

Per the record, `Cc1cc(-c2cnn3c(NC[C@H]4CCCO4)cc(NC4CCCC4)nc23)ccc1C(=O)NC1CC1` has GI50 of 100 to 500 nM

----------
test system: breast cancer cells (MDA-MB-468); assay: Cancer cell line growth inhibition, Sulforhodamine B assay, MDA-MB-468; format: cell-based; settings: Homo sapiens, MDA-MB-468, MDA-MB-468 breast cancer cell line; read-out: Cancer Cell Line GI50 Range MDA-MB-468
quantity: GI50

entry-smiles | value
Cc1cc(-c2cnn3c(NCC4CCOCC4)cc(Oc4ccc[n+]([O-])c4)nc23)ccc1C(=O)NC1CC1 | > 500 nM
Cc1cc(-c2cnn3c(NCC4CCOCC4)cc(N[C@H](CO)C4CCOCC4)nc23)ccc1C(=O)NC1CC1 | > 500 nM
Cc1cc(-c2cnn3c(NCC4CCOCC4)cc(NC4(CO)CC4)nc23)ccc1C(=O)NC1CC1 | 100 to 500 nM
O=C(NC1CC1)c1ccc(-c2cnn3c(NCCN4CCOCC4)cc(Oc4cccc(F)c4F)nc23)cc1Cl | ≤ 100 nM

Form field GI50, entry `Cc1cc(-c2cnn3c(NCC4(CO)CCOCC4)cc(NC4CCCC4)nc23)ccc1C(=O)NC1CC1` : > 500 nM

Recorded GI50 (compound `CC[C@H](Nc1cc(NC[C@H]2CCOC2)n2ncc(-c3ccc(C(=O)NC4CC4)c(C)c3)c2n1)[C@H](C)O` ): 100 to 500 nM

The reported GI50 of the compound `Cc1cc(-c2cnn3c(NCC4CCOCC4)cc(N[C@H](CO)C(C)C)nc23)ccc1C(=O)NC1CC1` was ≤ 100 nM

According to the records, this compound `Cc1cc(-c2cnn3c(NCC4(O)CCOCC4)cc(NC4CCCC4)nc23)ccc1C(=O)NC1CC1` displays GI50 of > 500 nM

Noted for `Cc1cc(-c2cnn3c(NCCN4CCC(O)CC4)cc(N[C@H]4CCCC[C@H]4O)nc23)ccc1C(=O)NC1CC1` : its GI50 reads 100 to 500 nM

The recorded GI50 for `Cc1cc(-c2cnn3c(NCC4COC4)cc(Oc4cccnc4)nc23)ccc1C(=O)NC1CC1` is 100 to 500 nM

The recorded GI50 for `Cc1cc(-c2cnn3c(NCC4CCOCC4)cc(N[C@H](C(N)=O)C(C)C)nc23)ccc1C(=O)NC1CC1` is 100 to 500 nM

Recorded result, `Cc1cc(-c2cnn3c(NCC4CCOCC4)cc(-c4ccncc4)nc23)ccc1C(=O)NC1CC1` , GI50: 100 to 500 nM

----------
tested on: ovarian cancer cells (PA-1); test: Cancer cell line growth inhibition, Sulforhodamine B assay, PA-1; type: cell-based; details: 120 h; Table 1; PA-1, 5 days, SRB; read-out: Cancer Cell Line GI50 Range PA-1
quantity: GI50

Sample records with GI50:
entry-smiles | GI50
O=C(NC1CC1)c1ccc(-c2cnn3c(NCC4CCOCC4)nc(N4CCOCC4)nc23)cc1Cl | ≤ 100 nM
Cc1cc(-c2cnn3c(NCC4CCOCC4)nc(NC4CCCC4)nc23)ccc1C(=O)NC1CC1 | ≤ 100 nM

Item: `Cc1cc(-c2cnn3c(NCC4CCOCC4)nc(Oc4ccccc4)nc23)ccc1C(=O)NC1CC1` | GI50: ≤ 100 nM

----------
Known GI50 of a selection of compounds
test system: colon cancer cells (HCT116); experiment: Cancer cell line growth inhibition, Sulforhodamine B assay, HCT116; format: cell-based; details: Homo sapiens, HCT-116, HCT116 colon cancer cell line; read-out: Cancer Cell Line GI50 Range HCT116

Observe how each entry below is paired with its result.
entry-smiles | value
Cc1cc(-c2cnn3c(NC[C@H]4C[C@@H](O)C4)cc(Oc4cccnc4)nc23)ccc1C(=O)NC1CC1 | ≤ 100 nM
Cc1cc(-c2cnn3c(NCC4CCOCC4)cc(N4CCOC[C@H]4CO)nc23)ccc1C(=O)NC1CC1 | 100 to 500 nM

Kindly note the recorded GI50 for `Cc1cc(-c2cnn3c(NC[C@H]4CCCO4)cc(NC4CCCC4)nc23)ccc1C(=O)NC1CC1` , which is 100 to 500 nM

So, `Cc1cc(-c2cnn3c(NCC4CCOCC4)nc(Oc4cccc(F)c4)nc23)ccc1C(=O)NC1CC1` ? Its GI50 was ≤ 100 nM

Sample `Cc1cc(-c2cnn3c(NCC4(F)CCN(C)CC4)cc(Oc4cccnc4)nc23)ccc1C(=O)NC1CC1` ; GI50 observed: 100 to 500 nM

Query `Cc1cc(-c2cnn3c(NCCN4CCOCC4)cc(Oc4cccnc4)nc23)ccc1C(=O)NC1CC1` yields GI50 of 100 to 500 nM

Measured GI50 of `Cc1cc(-c2cnn3c(NCC4(O)CCOCC4)cc(Oc4cccnc4)nc23)ccc1C(=O)NC1CC1` : 100 to 500 nM

What the record says about `Cc1cc(-c2cnn3c(NCCN4CCOCC4)cc(Oc4cccc(F)c4F)nc23)ccc1C(=O)NC1CC1` : GI50 is ≤ 100 nM

Lab book: GI50 of `Cc1cc(-c2cnn3c(NCC4CCOCC4)cc(N[C@H]4COCC[C@@H]4O)nc23)ccc1C(=O)NC1CC1` noted as > 500 nM

----------
test system: Ovarian 2393A tumor initiating cells; assay: Tumor-initiating cell growth inhibition, Alamar Blue assay, ovarian TICs; assay type: cell-based; details: 144 h; Ovarian 2393A TICs, 6 days; read-out: Tumor Initiating Cell GI50 Range Ovarian 2393A
quantity: GI50

The cases that follow already have their GI50 on record.
molecule | GI50
Cc1cc(-c2cnn3c(NCC4CCOCC4)cc(N[C@H]4CCN(C5COC5)C4)nc23)ccc1C(=O)NC1CC1 [Example C120] | > 500 nM
Cc1cc(-c2cnn3c(NCC4CCOCC4)cc(N[C@@H]4CCCC[C@@H]4O)nc23)ccc1C(=O)NC1CC1 [Example C118] | 100 to 500 nM
Cc1cc(-c2cnn3c(NCCN4CCOCC4)cc(Oc4cccc(F)c4)nc23)ccc1C(=O)NC1CC1 [Example C31] | ≤ 100 nM
Cc1cc(-c2cnn3c(NCC4CCOCC4)nc(Oc4ccccc4F)nc23)ccc1C(=O)NC1CC1 [Example C20] | 100 to 500 nM
Cc1cc(-c2cnn3c(NCC4(F)CCNCC4)cc(Oc4cccc(F)c4)nc23)ccc1C(=O)NC1CC1 [Example C146] | ≤ 100 nM

Given item Cc1cc(-c2cnn3c(NCC4CCOCC4)cc(N[C@H]4CC[C@H](O)CC4)nc23)ccc1C(=O)NC1CC1 [Example C48] , the value recorded as its GI50 is 100 to 500 nM

GI50 for Cc1cc(-c2cnn3c(NCC4CCOCC4)cc(N[C@@H](C4CC4)C(C)(C)O)nc23)ccc1C(=O)NC1CC1 [Example C41] is 100 to 500 nM

GI50 measured on Cc1cc(-c2cnn3c(NC[C@H]4C[C@H](O)C4)cc(NC4CCOCC4)nc23)ccc1C(=O)NC1CC1 [Example C145] = 100 to 500 nM

Entry Cc1cc(-c2cnn3c(NC[C@H]4CC[C@@H](O)CC4)cc(Oc4cccnc4)nc23)ccc1C(=O)NC1CC1 [Example C176] , GI50 reported as ≤ 100 nM

Looking up Cc1cc(-c2cnn3c(NC[C@H]4CC[C@H](O)CC4)cc(Oc4cccnc4)nc23)ccc1C(=O)NC1CC1 [Example C177] , I found its GI50 recorded as ≤ 100 nM

Short answer for Cc1cc(-c2cnn3c(NCC4COC4)cc(Oc4cccnc4)nc23)ccc1C(=O)NC1CC1 [Example C100] : GI50 was ≤ 100 nM
